# Target or test system: Artificial Cell Surface (ACS)
# Assay summary: ACS column adsorption of trypsin-digested dHSA, MALDI-TOF MS
Ends that are not written are not given here.
Observable: Percent Absorbed (%)
Use % as the unit, but write only the number.

Example binders with recorded Percent Absorbed:
Binder: FKDLGEENFK [… (trypsin-generated albumin fragment, SEQ ID NO: 213)]
Percent Absorbed (%): 8
--
Binder: VHTECCHGDLLECADDR [… (trypsin-generated albumin fragment, SEQ ID NO: 212)]
Percent Absorbed (%): 13

Input: # return recorded Percent Absorbed for input SLHTLFGDK [… (trypsin-generated albumin fragment, SEQ ID NO: 200)]
Output: 36

Input: # return recorded Percent Absorbed for input DDNPNLPR [DDNPNLPR (trypsin-generated albumin fragment, SEQ ID NO: 216)]
Output: 1

Input: # return recorded Percent Absorbed for input LDELRDEGK [… (trypsin-generated albumin fragment, SEQ ID NO: 215)]
Output: 2

Input: # return recorded Percent Absorbed for input RPCFSALEVDETYVPK [… (trypsin-generated albumin fragment, SEQ ID NO: 198)]
Output: 42

Input: # return recorded Percent Absorbed for input QEPERNECFLQHK (not fully specified) [… (trypsin-generated albumin fragment, SEQ ID NO: 211)]
Output: 18

Input: # return recorded Percent Absorbed for input YLYEIAR [YLYEIAR (trypsin-generated albumin fragment, SEQ ID NO: 203)]
Output: 34
